All figures here come from patent US20250051338A1.

# TARGET_SYSTEM: TYK2 (Homo sapiens)
# ASSAY_METHOD_TEXT: TYK2 degradation MSD assay in EBV-B cells
# Format: cell-based
# Parameters: endogenous in cells; host or cells: EBV-B cells
# REPORTED_CONDITIONS: 4 to 24 hours incubation, read-out: TYK2 MSD DC50 rating in EBV-B
VALUE_KIND: DC50

MOLECULE	TARGET_SYSTEM	VALUE_KIND	OBSERVED_MEASUREMENT
CNc1cc(Nc2cccn(-c3ccc(C(=O)N4CCN(CCCOCCc5ccc(-c6ccc7c(c6)n(C)c(=O)n7C6CCC(=O)NC6=O)cc5)CC4)cn3)c2=O)nn2c(C(=O)N[C@@H]3C[C@@H]3F)cnc12 (stereo partly shown) [Example K379]	TYK2 (Homo sapiens)	DC50	< 1 nM
CNc1cc(-c2cccc(C(=O)NCCCCCCc3ccc4c(c3)n(C)c(=O)n4C3CCC(=O)NC3=O)c2)nn2c(C(=O)N[C@@H]3C[C@@H]3F)cnc12 (stereo partly shown) [Example K306]	TYK2 (Homo sapiens)	DC50	> 100 nM

TYK2 (Homo sapiens) data for CNc1cc(Nc2cccn(-c3ccc(C(=O)NCCOCCOCCOCCOCCOCCOCCc4cccc5c4n(C)c(=O)n5C4CCC(=O)NC4=O)cn3)c2=O)nn2c(C(=O)N[C@@H]3C[C@@H]3F)cnc12 (stereo partly shown) [Example K217] ; its DC50: 10 to 100 nM

// returns DC50 for CNc1cc(-c2cnn(C3CN(C(=O)NCCCCc4cccc5c4n(C)c(=O)n5C4CCC(=O)NC4=O)C3)c2)nn2c(C(=O)N[C@@H]3C[C@@H]3F)cnc12 (stereo partly shown) [Example K316] with TYK2 (Homo sapiens); value = > 100 nM

I looked up CNc1cc(Nc2cccn(-c3ccc(C(=O)NCCCCCCCCCc4cccc5c4n(C)c(=O)n5C4CCC(=O)NC4=O)cn3)c2=O)nn2c(C(=O)N[C@@H]3C[C@@H]3F)cnc12 (stereo partly shown) [Example K266] and its DC50 for TYK2 (Homo sapiens) was > 100 nM

Tested on TYK2 (Homo sapiens), the item CNc1cc(Nc2cccn(-c3ccc(C(=O)N4CC(CN5CCC(c6cccc7c6n(C)c(=O)n7C6CCC(=O)NC6=O)CC5)C4)cn3)c2=O)nn2c(C(=O)N[C@@H]3C[C@@H]3F)cnc12 (stereo partly shown) [Example K450] showed DC50 equal to > 100 nM

Tested on TYK2 (Homo sapiens): Cn1c(=O)n(C2CCC(=O)NC2=O)c2cccc(CCOCCOCCOCCOCCOCCOCCNc3cc(Nc4cccn(-c5ccccn5)c4=O)nn4c(C(=O)N[C@@H]5C[C@@H]5F)cnc34)c21 (stereo partly shown) [Example K213] . Observed DC50: > 100 nM

Query CNc1cc(Nc2cccc(CN3CCC(N4CC(N5CCN(c6ccc7c(c6)n(C)c(=O)n7C6CCC(=O)NC6=O)CC5)C4)CC3)c2)nn2c(C(=O)NC3CC3)cnc12 (stereo not shown) [Example K589] on TYK2 (Homo sapiens); DC50 returned: > 100 nM

// DC50 (TYK2 (Homo sapiens)) for CNC(=O)c1cnc(Nc2ccc(C(=O)N(C)C3CCN(c4ccc5c(c4)n(C)c(=O)n5C4CCC(=O)NC4=O)CC3)cn2)cc1Nc1ccccc1OC (stereo not shown) [Example K133] = 1 to 10 nM

Field DC50 (system: TYK2 (Homo sapiens)) for entry CNc1cc(Nc2cccn(-c3cc(C(=O)NCCCCCCc4cccc5c4n(C)c(=O)n5C4CCC(=O)NC4=O)ccn3)c2=O)nn2c(C(=O)N[C@@H]3C[C@@H]3F)cnc12 (stereo partly shown) [Example K230] = > 100 nM

###

# TARGET_SYSTEM: TYK2 (Homo sapiens)
# ASSAY_METHOD_TEXT: TYK2 degradation MSD assay in EBV-B cells
# Assay type: cell-based
# Design: endogenous in cells; host or cells: EBV-B cells
# REPORTED_CONDITIONS: 4 to 24 hours incubation, read-out: TYK2 MSD DC50 rating in EBV-B
# Procedure: Example 3. TYK2 Degradation MSD Assay in EBV-B, OCI-LY10, and Human PBMC Cells Degradation of TYK2 in cells was quantitatively measured using Meso Scale Discovery (MSD) technology. […] The assay plates were then incubated at room temperature for 1 hour, washed 3 times with 150 μl/well TBST buffer, and 150 μl/well MSD reading buffer (MSD, R92TC-2) were added. The plates were then analyzed by an MSD reader. […]
Recorded DC50, one value per entry.

Below, 2 compounds whose answers are already recorded.
COMPOUND	TARGET_SYSTEM	DC50
CNC(=O)c1cnc(Nc2ccc(C3CN(Cc4cccc5c4n(C)c(=O)n5C4CCC(=O)NC4=O)C3)cn2)cc1Nc1cccc(-c2ncc(F)cn2)c1OC (stereo not drawn)	TYK2 (Homo sapiens)	< 1 nM
Cn1c(=O)n(C2CCC(=O)NC2=O)c2ccc(N3CCN(Cc4ccc(-c5cccc(Nc6ccc7ncc(C(=O)NC8CC8)n7n6)c5)nc4)CC3)cc21 (stereo not drawn)	TYK2 (Homo sapiens)	> 100 nM

Next compound, please.
For CNc1cc(Nc2cccn(-c3ccc(C(=O)N4CCC(CN(C)C5CCN(c6ccc7c(c6)n(C)c(=O)n7C6CCC(=O)NC6=O)CC5)C4)cn3)c2=O)nn2c(C(=O)N[C@@H]3C[C@@H]3F)cnc12 (stereo partly drawn) the compound record lists DC50 as > 100 nM

###

# TARGET_SYSTEM: TYK2 (Homo sapiens)
# ASSAY_METHOD_TEXT: TYK2 degradation MSD assay in OCI-LY10 cells
# Format: cell-based
# Parameters: endogenous in cells; host or cells: EBV-B cells
# REPORTED_CONDITIONS: 4 to 24 hours incubation, read-out: TYK2 MSD DC50 rating in OCI-LY10
VALUE_KIND: DC50

As a guide, the following entries are already answered.
COMPOUND	TARGET_SYSTEM	OBSERVED_MEASUREMENT
CNc1cc(Nc2cccc(-c3ccc(C(=O)N4CCC(CN5CCN(c6ccc(-c7ccc8c(c7)n(C)c(=O)n8C7CCC(=O)NC7=O)cc6)CC5)CC4)cn3)c2OC)nn2c(C(=O)N[C@@H]3C[C@@H]3F)cnc12 (some centres unmarked)	TYK2 (Homo sapiens)	< 1 nM
CNc1cc(Nc2cccn(-c3cc(C(=O)NCCOCCOCCc4cccc5c4n(C)c(=O)n5C4CCC(=O)NC4=O)ccn3)c2=O)nn2c(C(=O)N[C@@H]3C[C@@H]3F)cnc12 (some centres unmarked)	TYK2 (Homo sapiens)	> 100 nM
CNc1cc(Nc2cccc(-c3ccc(CN4CC5(CCN(c6cccc7c6n(C)c(=O)n7C6CCC(=O)NC6=O)CC5)C4)cn3)c2)nn2c(C(=O)N[C@@H]3C[C@@H]3F)cnc12 (some centres unmarked) [Example K510]	TYK2 (Homo sapiens)	< 1 nM
CNc1cc(Nc2cccn(-c3ccc(C(=O)NCCOCCOCCOCCOCCc4ccc5c(c4)n(C)c(=O)n5C4CCC(=O)NC4=O)cn3)c2=O)nn2c(C(=O)N[C@@H]3C[C@@H]3F)cnc12 (some centres unmarked)	TYK2 (Homo sapiens)	> 100 nM
CNc1cc(Nc2cccn(C3CCN(C(=O)COCCOCCc4ccc5c(c4)n(C)c(=O)n5C4CCC(=O)NC4=O)CC3)c2=O)nn2c(C(=O)N[C@@H]3C[C@@H]3F)cnc12 (some centres unmarked)	TYK2 (Homo sapiens)	> 100 nM

Below: the item to evaluate.
The compound CNc1cc(N2CCc3c(C4CCN(CC5CCN(C(=O)c6ccc(Cl)c(N7CCC(=O)NC7=O)c6)CC5)CC4)cccc32)nn2c(C(=O)N[C@@H]3C[C@@H]3F)cnc12 (racemic) showed DC50 equal to > 100 nM

###

# TARGET_SYSTEM: TYK2 (Homo sapiens, UniProt P29597)
# Sequence (P29597 whole entry): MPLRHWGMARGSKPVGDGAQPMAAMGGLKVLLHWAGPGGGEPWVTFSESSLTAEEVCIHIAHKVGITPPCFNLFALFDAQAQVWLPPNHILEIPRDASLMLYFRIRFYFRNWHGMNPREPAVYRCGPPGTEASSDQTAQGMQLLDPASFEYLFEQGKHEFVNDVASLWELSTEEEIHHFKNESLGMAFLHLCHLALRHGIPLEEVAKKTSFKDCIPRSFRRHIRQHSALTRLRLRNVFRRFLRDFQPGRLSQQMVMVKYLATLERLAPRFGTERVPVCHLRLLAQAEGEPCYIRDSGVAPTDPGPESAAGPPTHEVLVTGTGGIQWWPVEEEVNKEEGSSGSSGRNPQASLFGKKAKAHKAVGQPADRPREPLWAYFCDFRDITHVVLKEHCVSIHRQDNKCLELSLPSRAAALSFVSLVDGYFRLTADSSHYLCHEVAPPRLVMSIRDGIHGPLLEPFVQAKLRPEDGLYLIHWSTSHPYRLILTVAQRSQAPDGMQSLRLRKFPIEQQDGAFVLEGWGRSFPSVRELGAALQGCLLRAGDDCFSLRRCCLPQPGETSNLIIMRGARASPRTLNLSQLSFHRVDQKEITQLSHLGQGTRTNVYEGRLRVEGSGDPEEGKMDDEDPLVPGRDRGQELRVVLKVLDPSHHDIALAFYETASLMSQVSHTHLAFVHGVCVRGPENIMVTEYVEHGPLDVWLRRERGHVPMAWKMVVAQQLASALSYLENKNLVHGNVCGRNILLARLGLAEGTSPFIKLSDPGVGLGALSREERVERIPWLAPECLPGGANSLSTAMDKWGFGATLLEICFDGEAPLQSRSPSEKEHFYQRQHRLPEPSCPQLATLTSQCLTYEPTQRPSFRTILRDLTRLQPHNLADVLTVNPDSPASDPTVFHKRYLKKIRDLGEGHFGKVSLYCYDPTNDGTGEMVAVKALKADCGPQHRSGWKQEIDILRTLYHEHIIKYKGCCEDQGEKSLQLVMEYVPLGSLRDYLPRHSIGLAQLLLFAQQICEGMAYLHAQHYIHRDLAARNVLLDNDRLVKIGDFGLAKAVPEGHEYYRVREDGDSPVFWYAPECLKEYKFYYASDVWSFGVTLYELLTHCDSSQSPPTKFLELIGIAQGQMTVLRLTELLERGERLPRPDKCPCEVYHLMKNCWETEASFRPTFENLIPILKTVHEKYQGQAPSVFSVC
# ASSAY_METHOD_TEXT: TYK2 degradation MSD assay in OCI-LY10 cells
# Assay type: cell-based
# Set-up: endogenous in cells; host or cells: EBV-B cells
# REPORTED_CONDITIONS: 4 to 24 hours incubation, read-out: TYK2 MSD DC50 rating in OCI-LY10
VALUE_KIND: DC50

COMPOUND	TARGET_SYSTEM	VALUE_KIND	OBSERVED_MEASUREMENT
CNc1cc(N2CCc3c(N4CCC(CN5CCN(c6ccc(-c7ccc8c(c7)n(C)c(=O)n8C7CCC(=O)NC7=O)cc6)CC5)CC4)cccc32)nn2c(C(=O)N[C@@H]3C[C@@H]3F)cnc12 (some centres unmarked)	TYK2 (Homo sapiens, UniProt P29597)	DC50	> 100 nM
CNc1cc(Nc2cccc(-c3ccc(CN4CCN(c5ccc(-c6ccc7c(c6)n(C)c(=O)n7C6CCC(=O)NC6=O)cc5)CC4)cn3)c2Cl)nn2c(C(=O)N[C@@H]3C[C@@H]3F)cnc12 (mixture of isomers)	TYK2 (Homo sapiens, UniProt P29597)	DC50	< 1 nM
CNc1cc(Nc2cccn(-c3ccc(C(=O)N4CCC(N5CC(c6ccc7c(c6)n(C)c(=O)n7C6CCC(=O)NC6=O)C5)CC4)cn3)c2=O)nn2c(C(=O)N[C@@H]3C[C@@H]3F)cnc12 (some centres unmarked)	TYK2 (Homo sapiens, UniProt P29597)	DC50	< 1 nM
CNc1cc(Nc2cccn(-c3ccc(C(=O)NCCCCCCCc4cccc5c4n(C)c(=O)n5C4CCC(=O)NC4=O)cn3)c2=O)nn2c(C(=O)N[C@@H]3C[C@@H]3F)cnc12 (some centres unmarked)	TYK2 (Homo sapiens, UniProt P29597)	DC50	> 100 nM

# next compound below
Just so you know, measured DC50 for CNc1cc(Nc2cccn(-c3ccc(C(=O)N4CCC(CN5CCCN(c6ccc(-c7ccc8c(c7)n(C)c(=O)n8C7CCC(=O)NC7=O)cn6)CC5)CC4)cn3)c2=O)nn2c(C(=O)N[C@@H]3C[C@@H]3F)cnc12 (some centres unmarked) came out at < 1 nM
